Tested on: UACC-62
Assay: NCI tumour cell line growth inhibition, 48 h
Calls of active or inactive are those of the source. Rule as the data show it: active = GI50 up to about 1.1 µM and inactive = higher.
The reply should name one outcome from True (active), False (inactive)

Sample answers from the record:
Would you mind telling me which call this test gave "O=[N+]([O-])c1ccc2[nH]c(=S)[nH]c(=S)c2c1" ?
False

Would you mind telling me which call this test gave C=C1C(=O)OC2/C=C(\C)C3OC3/C=C(/C(=O)OC)C(O)C(OC(=O)C3(C)OC3C)C12 (stereo not given) ?
True

Would you mind telling me which call this test gave COC(=O)C(=O)C(C#N)c1ccc(Cl)c(Cl)c1 (stereo not given) ?
False

Would you mind telling me which call this test gave O=C(CCCCCC(=O)N1CC(CCl)c2ccc([N+](=O)[O-])cc21)N1CC(CCl)c2ccc([N+](=O)[O-])cc21 (stereo not given) ?
False

Would you mind telling me which call this test gave c1ccc(C2=NN(c3ccccc3)C3(S2)SC(c2ccccc2)(c2ccccc2)c2ccccc23)cc1 (stereo not given) ?
False

Would you mind telling me which call this test gave Cc1cccc(C(O)c2cccnc2)c1O (stereo not given) ?
False

Would you mind telling me which call this test gave CCOc1ccc2nc(NC(=O)/C(CC(=O)CC(C3=C(O)c4ccccc4CC3=O)c3ccccc3)=N\O)sc2c1 (stereo not given) ?
False

Would you mind telling me which call this test gave "COC(=O)c1cccc(OC)c1C#Cc1c(OC)cccc1OC" ?
False

***
Would you mind telling me which call this test gave CC(C)=CCC(OC(=O)C=C(C)C)c1cc(O)c2c(c1O)C(=O)C=CC2=O (stereo not given) ?
True

Would you mind telling me which call this test gave N#Cc1ccccc1NC(=O)C(=O)C(C(=O)c1ccccc1F)C1OC(=O)c2ccccc21 (stereo not given) ?
False

====

Test system: Hs-578T
Assay: NCI tumour cell line growth inhibition, 48 h
Activity calls are given as the source filed them. Cut-off read from the data, not from the text of the source: active = GI50 up to about 1.1 µM and inactive = higher.
The reply should name one outcome from 1 (yes) = active, 0 (no) = inactive

Sample answers from the record:
Would you mind telling me which call this test gave "CCOC(CN(C)C(=O)Nc1cccc2ccccc12)OCC" ?
0 (no)

Would you mind telling me which call this test gave "Cc1cccc2c(NCCN(C)C)c3cccc(C(=O)NCCN(C)C)c3nc12" ?
1 (yes)

Would you mind telling me which call this test gave "O=c1oc2ccc([N+](=O)[O-])cc2c(Nc2ccc3c(c2)Sc2ccccc2O3)c1[N+](=O)[O-]" ?
0 (no)

Would you mind telling me which call this test gave O=C1CC(C(CC(=O)c2ccccc2)c2ccccc2)C(=O)c2ccccc2N1 (centres undefined) ?
0 (no)

Would you mind telling me which call this test gave "O=C(N/N=C\c1ccc([N+](=O)[O-])cc1)c1ccccc1Nc1ccccc1C(=O)N/N=C/c1ccc([N+](=O)[O-])cc1" ?
0 (no)

***
Would you mind telling me which call this test gave CC(=O)OCC1OC(n2c(C)cc(C)c(C#N)c2=S)C(OC(C)=O)C(OC(C)=O)C1OC(C)=O (centres undefined) ?
0 (no)

Would you mind telling me which call this test gave "NC(=O)c1nnsc1NN=O" ?
0 (no)

Would you mind telling me which call this test gave "CC(=O)O[C@H]1CC[C@@]2(C)C(=CC[C@H]3[C@@H]4C[C@H](N5CCOCC5)[C@H](OC(C)=O)[C@@]4(C)CC[C@@H]32)C1" ?
0 (no)

Would you mind telling me which call this test gave CCOc1ccc2nc(NC(=O)/C(CC(=O)CC(C3=C(O)c4ccccc4CC3=O)c3ccccc3)=N\O)sc2c1 (centres undefined) ?
0 (no)
